Hey, just so you know, these numbers are from the supplement of paper PMC12042874.

Listed substances paired with reported amyloid nucleation score
Experiment: amyloid nucleation score (Sup35N fusion, yeast selection) (log enrichment); library NNK1; higher = more nucleation; inactive = no reads after selection;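 note: zero at mode of non-aggregating sequences after 7 days selection at 30°C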
Write no unit; give the number alone.

YLVITLFPEIIIDYLSYLCP
4.52
GYNWGFVHCSYRSSHFGSGF
0.348
HATMVSALLVWGW
-0.286
WLGMRMVGNVVERLYSVRCQ
-0.111
TRAHGALYREEVKTWGSRLK
-0.998

Identify measured amyloid nucleation score corresponding to IYNLDWSF
-0.99

Identify measured amyloid nucleation score corresponding to FTKFRYRTLINSYNFWGTGA
-0.115

Identify measured amyloid nucleation score corresponding to ARGPLKSGINQNVCSCGTSI
0.118

Identify measured amyloid nucleation score corresponding to MDSCCIMTMIKHELGLPYQP
3.77

Identify measured amyloid nucleation score corresponding to LILLLFEGFLLP
0.246

Identify measured amyloid nucleation score corresponding to TSLNNGKSDFLYEARVLLEF
0.541

Identify measured amyloid nucleation score corresponding to ECYGIR
0.893

Identify measured amyloid nucleation score corresponding to RLLPYILMTFLHEYVGAGYE
0.561

Identify measured amyloid nucleation score corresponding to CILLVFEDMWVSIV
-0.53

Identify measured amyloid nucleation score corresponding to MNRVDLCVNA
0.438

Identify measured amyloid nucleation score corresponding to ASNTANIPYGII
0.489

Identify measured amyloid nucleation score corresponding to SGSALYLCAISLRVSTEEKP
-0.178

Identify measured amyloid nucleation score corresponding to RLYLNDNTLSCF
-0.001

Identify measured amyloid nucleation score corresponding to DNDSWYKYPCFWLCYFPACN
5.17

Identify measured amyloid nucleation score corresponding to SLSNCTGKNVLVTLS
0.428

Identify measured amyloid nucleation score corresponding to GLWMWEEVILISTLKLFVLV
0.139

Identify measured amyloid nucleation score corresponding to WPGLFMIY
0.016
